Details: in methanol, 313.15 K
ASSAY_READOUT: solubility (mole fraction)
Reply: number alone, nothing else.

Fill blank: measured solubility (mole fraction) of the compound `COC(=O)c1cccc(C(=O)OC)n1` is ____. 0.0075

###

Details: in DMSO, 318.15 K
ASSAY_READOUT: solubility (mole fraction)
Reply: number alone, nothing else.

Fill blank: measured solubility (mole fraction) of the compound `COC(=O)c1cccc(C(=O)OC)n1` is ____. 0.0503

###

Conditions: in THF, 298.15 K
ASSAY_READOUT: solubility (mole fraction)
Reply: number alone, nothing else.

Fill blank: measured solubility (mole fraction) of the compound `COC(=O)c1cccc(C(=O)OC)n1` is ____. 0.0138

###

Details: in methanol, 303.15 K
ASSAY_READOUT: solubility (mole fraction)

Fill blank: measured solubility (mole fraction) of the compound `COC(=O)c1cccc(C(=O)OC)n1` is ____. 0.00425

###

Details: in ethyl acetate, 313.15 K
ASSAY_READOUT: solubility (mole fraction)

Fill blank: measured solubility (mole fraction) of the compound `COC(=O)c1cccc(C(=O)OC)n1` is ____. 0.0261

###

Details: in isopentyl acetate, 308.15 K
ASSAY_READOUT: solubility (mole fraction)
Reply: number alone, nothing else.

Fill blank: measured solubility (mole fraction) of the compound `COC(=O)c1cccc(C(=O)OC)n1` is ____. 0.00729

###

Conditions: in isopentyl acetate, 278.15 K
ASSAY_READOUT: solubility (mole fraction)
Reply: number alone, nothing else.

Fill blank: measured solubility (mole fraction) of the compound `COC(=O)c1cccc(C(=O)OC)n1` is ____. 0.00146

###

Conditions: in ethyl acetate, 298.15 K
ASSAY_READOUT: solubility (mole fraction)
Reply: number alone, nothing else.

Fill blank: measured solubility (mole fraction) of the compound `COC(=O)c1cccc(C(=O)OC)n1` is ____. 0.0105

###

Settings: in isopropyl acetate, 313.15 K
ASSAY_READOUT: solubility (mole fraction)
Reply: number alone, nothing else.

Fill blank: measured solubility (mole fraction) of the compound `COC(=O)c1cccc(C(=O)OC)n1` is ____. 0.0161
